Reference source for all entries: PubChem BioAssay

# assay_info: human hepatoma cell viability loss – ATP luminescence, cytotoxicity control for P. falciparum antimalarial project, primary screen (AID 2303)
# test_parameters: HepG2 viability, 24-48 h, at 10 µM, stronger effect = higher value
Binning of inhibition into classes: low range (below 30%), mid range (30% to below 50%), high range (50% or more)

{"compound": "CC(C)c1ccc(NC(=O)NCCCC2CCCN(CCCCCNC(=O)/C=C/c3ccc(Cl)c(Cl)c3)C2)cc1 (centres undefined)", "label_class": "low range"}
{"compound": "CCN(CC)c1ccccc1CNC(=O)c1cc(Cl)c(N)cc1OC", "label_class": "low range"}
{"compound": "O=C(Nc1ccc(-c2csc(-c3nc4ccccc4[nH]3)c2)cc1)Nc1ccc(F)c(F)c1F", "label_class": "high range"}
{"compound": "c1cc(CN2CCCCC2)cc(OCCCNc2ccnc3ccccc23)c1", "label_class": "mid range"}
{"compound": "CCN1CCN(CCCNc2c3ccc(Cl)cc3nc3ccc(OC)cc23)CC1", "label_class": "mid range"}
{"compound": "COc1ccc(C(c2ccc(N(C)C)cc2)c2ccc(N(C)C)cc2)cc1", "label_class": "high range"}
{"compound": "O=C(NCCCCN1CCC(c2ccc(-c3ccco3)cc2)CC1)c1ccc(NC(=O)c2ccc(Cl)cc2)cc1", "label_class": "low range"}
{"compound": "COc1ccc(-c2cc(C(=O)Nc3ccc(CCCN(C)Cc4ccc(OC)c(OC)c4)cc3)c3ccccc3n2)cc1", "label_class": "mid range"}
